Biological target: Recombinant STAT3 protein (STAT3(G127-I722)) (Homo sapiens)
Construct: Recombinant STAT3 protein (STAT3(G127-I722))
Sequence (P40763 127-722): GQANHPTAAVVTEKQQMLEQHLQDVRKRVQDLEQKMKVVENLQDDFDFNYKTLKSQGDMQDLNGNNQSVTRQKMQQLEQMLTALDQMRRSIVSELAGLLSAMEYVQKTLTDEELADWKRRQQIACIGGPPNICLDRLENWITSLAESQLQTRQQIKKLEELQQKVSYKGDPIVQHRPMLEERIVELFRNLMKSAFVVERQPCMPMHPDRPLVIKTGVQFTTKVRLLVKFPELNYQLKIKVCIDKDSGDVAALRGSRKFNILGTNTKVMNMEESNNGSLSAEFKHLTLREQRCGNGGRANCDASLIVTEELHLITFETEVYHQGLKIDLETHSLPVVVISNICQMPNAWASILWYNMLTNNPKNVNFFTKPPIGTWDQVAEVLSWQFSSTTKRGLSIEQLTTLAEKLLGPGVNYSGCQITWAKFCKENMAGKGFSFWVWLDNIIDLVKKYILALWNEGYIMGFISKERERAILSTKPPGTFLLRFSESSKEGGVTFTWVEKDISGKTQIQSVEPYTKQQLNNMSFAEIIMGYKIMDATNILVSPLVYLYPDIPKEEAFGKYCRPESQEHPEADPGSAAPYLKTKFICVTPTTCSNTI
Experiment: STAT3 Fluorescence Polarization (FP) Assay
Conditions: STAT3(G127-I722) 25 nM, probe 5-FAM-GpYLPQTV-NH2 2 nM, 45-minute incubation
pIC50: −log10 of the molar value.
// values below are reported pIC50

Take a look at these entries with their results.
COMPOUND | pIC50
CC(=O)N1CC[C@H]2CC[C@@H](C(=O)N(C)c3ccc(C#N)cc3)N2C(=O)[C@@H](NC(=O)c2cc3cc(C(F)(F)P(=O)(O)O)ccc3s2)C1 | 5.00 to 6.00
CC(=O)N1CC[C@H]2CC[C@@H](C(=O)N3CCCC3Cc3cccc(Cl)c3)N2C(=O)[C@@H](NC(=O)c2cc3cc(C(F)(F)P(=O)(O)O)ccc3[nH]2)C1 (some centres unmarked) | 5.00 to 6.00
CC(=O)N1CC[C@H]2CC[C@@H](C(=O)N3C[C@H](C#N)C[C@@H]3Cc3ccccc3)N2C(=O)[C@@H](NC(=O)c2cc3cc(C(F)(F)P(=O)(O)O)ccc3s2)C1 | 5.00 to 6.00
CC(=O)N1CC[C@H]2CC[C@@H](C(=O)N3CC[C@H](Cc4cccnc4)C3)N2C(=O)[C@@H](NC(=O)c2cc3cc(C(F)(F)P(=O)(O)O)ccc3s2)C1 (single isomer, unassigned) | 5.00 to 6.00

Tell me reported pIC50 for O=C(N[C@H]1CN(C(=O)c2noc3c2COCC3)CC[C@H]2CC[C@@H](C(=O)N3CCOCC3)N2C1=O)c1ccc2ccc(C(F)P(=O)(O)O)cc2c1 (some centres unmarked) , tested with Recombinant STAT3 protein (STAT3(G127-I722)) (Homo sapiens).
< 5.00

====

// values below are reported IC50
Molecular target: Recombinant STAT6 protein (STAT6(W123-T658)) (Homo sapiens)
Construct: Recombinant STAT6 protein (STAT6(W123-T658))
Sequence (P42226 123-658): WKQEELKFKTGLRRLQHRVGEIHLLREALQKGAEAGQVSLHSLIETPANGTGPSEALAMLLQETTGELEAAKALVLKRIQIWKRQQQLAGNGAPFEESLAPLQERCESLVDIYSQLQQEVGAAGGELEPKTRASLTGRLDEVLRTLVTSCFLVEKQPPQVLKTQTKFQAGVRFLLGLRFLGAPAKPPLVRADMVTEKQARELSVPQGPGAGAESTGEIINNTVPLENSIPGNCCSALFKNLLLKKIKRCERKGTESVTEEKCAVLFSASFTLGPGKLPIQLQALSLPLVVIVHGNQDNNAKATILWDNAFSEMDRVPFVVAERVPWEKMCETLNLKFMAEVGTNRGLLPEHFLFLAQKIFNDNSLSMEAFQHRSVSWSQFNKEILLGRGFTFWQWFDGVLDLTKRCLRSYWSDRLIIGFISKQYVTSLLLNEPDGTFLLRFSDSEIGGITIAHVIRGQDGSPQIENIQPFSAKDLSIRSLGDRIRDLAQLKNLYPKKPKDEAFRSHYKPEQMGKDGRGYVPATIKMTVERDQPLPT
Assay: STAT6 Fluorescence Polarization (FP) Assay
Conditions: STAT6(W123-T658) 250 nM, probe 5-FAM-ApYKPFQDLI-NH2 2 nM, 45-minute incubation
Protocol: STAT6 Fluorescence Polarization (FP) Assay An FP assay was developed to determine IC50 values for test substances. […] Reaction components were mixed, and FP was measured after 45-minute incubation at room temperature using a Tecan Spark multimode plate reader. FP signal (mP) was plotted against the log concentration of the test substances and IC50 values were calculated by nonlinear regression analysis using GraphPad Prism software. […]

Take a look at these entries with their results.
MOLECULE | IC50
CC(=O)N1CC[C@H]2CC[C@@H](C(=O)Nc3ccn(-c4ccccc4)c(=O)c3C#N)N2C(=O)[C@@H](NC(=O)c2cc3cc(C(F)(F)P(=O)(O)O)ccc3[nH]2)C1 | 300 to 3000 nM
CC(=O)N1CC[C@H]2CC[C@@H](C(=O)N3CC(c4cccc(C#N)c4)C3)N2C(=O)[C@@H](NC(=O)c2cc3cc(C(F)(F)P(=O)(O)O)ccc3s2)C1 | 300 to 3000 nM
N#CC1CN(C(=O)C2CCC3CCN(C(=O)OCc4ccccc4)CC(NC(=O)c4cc5cc(C(F)(F)P(=O)(O)O)ccc5s4)C(=O)N32)CC1c1ccccc1 (mixture of isomers) | ≤ 300 nM
CC(=O)N1CC[C@H]2CC[C@@H](C(=O)N(C)c3ccccc3C#N)N2C(=O)[C@@H](NC(=O)c2cc3cc(C(F)(F)P(=O)(O)O)ccc3[nH]2)C1 | 300 to 3000 nM

API: the following record is the query input.
Tell me reported IC50 for CC(=O)N1CC[C@H]2CC[C@@H](C(=O)N(C)CC(C)C#N)N2C(=O)[C@@H](NC(=O)c2cc3cc(C(F)(F)P(=O)(O)O)ccc3s2)C1 (some centres unmarked) , tested with Recombinant STAT6 protein (STAT6(W123-T658)) (Homo sapiens).
300 to 3000 nM
